Can you tell me Ki for the items I'm about to list?
SUBJECT OF TEST: UniProtKB P35462
Sequence (P35462 whole entry): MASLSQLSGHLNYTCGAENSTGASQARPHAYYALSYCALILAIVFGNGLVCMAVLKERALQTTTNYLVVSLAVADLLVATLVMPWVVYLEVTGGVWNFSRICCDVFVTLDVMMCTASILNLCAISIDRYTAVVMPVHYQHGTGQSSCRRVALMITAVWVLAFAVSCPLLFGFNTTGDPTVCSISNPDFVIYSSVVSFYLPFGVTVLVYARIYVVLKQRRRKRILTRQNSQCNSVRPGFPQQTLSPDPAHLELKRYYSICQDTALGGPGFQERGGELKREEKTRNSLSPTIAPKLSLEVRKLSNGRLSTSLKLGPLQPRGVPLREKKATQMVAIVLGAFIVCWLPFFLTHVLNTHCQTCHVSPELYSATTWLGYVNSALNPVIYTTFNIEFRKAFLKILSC
ASSAY EXPLANATION: radioligand binding assay, dopamine D3 receptor, [3H]spiperone
CONDITION DESCRIPTION: CHO cell membranes, mean of two to five experiments in triplicate, read-out: Ki D3

Task item: Write down the reported Ki of Cc1ccc(CNCC2(F)CCN(C(=O)c3coc(Br)c3)CC2)nc1 , test system: UniProtKB P35462.
Reply: > 5 µM

Task item: Param readout= Ki; system= UniProtKB P35462; entry= Cc1ccc(CNCC2(F)CCN(C(=O)c3ccc(Cl)s3)CC2)nc1 ; returns value.
Reply: > 5 µM

Task item: Recorded Ki for Cc1ccc(CNCC2(F)CCN(C(=O)c3cccs3)CC2)nc1 [Example E1] with UniProtKB P35462, please?
Reply: > 5 µM

Task item: Test system UniProtKB P35462; read-out Ki; what value for CSc1ccc(C(=O)N2CCC(F)(CNCc3ccc(C)cn3)CC2)s1 ?
Reply: > 5 µM

Task item: # returns recorded Ki (system: UniProtKB P35462) for Cc1ccc(CNCC2(F)CCN(C(=O)c3ccc(C)s3)CC2)nc1
Reply: > 5 µM

Task item: Provide value of Ki for this record tested with UniProtKB P35462: COc1c(C(=O)N2CCC(F)(CNCc3ccc(C)cn3)CC2)csc1Cl
Reply: > 5 µM

Task item: Checklist item: Ki tested on UniProtKB P35462, entry Cc1ccc(CNCC2(F)CCN(C(=O)c3sccc3-n3cccc3)CC2)nc1 , value?
Reply: > 5 µM

Task item: Entry Cc1ccc(CNCC2(F)CCN(C(=O)c3ccoc3)CC2)nc1 , system UniProtKB P35462: what Ki was measured?
Reply: > 5 µM

Task item: Enter reported Ki observed with UniProtKB P35462 for Cc1ccc(CNCC2(F)CCN(C(=O)c3cc4sccc4s3)CC2)nc1
Reply: > 5 µM

Task item: Which Ki is reported with UniProtKB P35462 for this entry: Cc1ccc(CNCC2(F)CCN(C(=O)c3cc4cc(Br)ccc4s3)CC2)nc1 ?
Reply: 0.501 to 5 µM

Task item: Item: Cc1ccc(CNCC2(F)CCN(C(=O)c3ccc(-c4ccccc4)s3)CC2)nc1 Test system: UniProtKB P35462 Read-out: Ki Value: ?
Reply: 0.501 to 5 µM

Task item: Lab note: need Ki with UniProtKB P35462 for entry Cc1ccc(CNCC2(F)CCN(C(=O)c3ccc(-c4ccccn4)s3)CC2)nc1 , please look it up.
Reply: > 5 µM

Task item: So what Ki did Cc1ccc(CNCC2(F)CCN(C(=O)c3cc(C)cs3)CC2)nc1 get with UniProtKB P35462?
Reply: > 5 µM

Task item: Form: Entry = Cc1ccc(CNCC2(F)CCN(C(=O)c3sc4sccc4c3Cl)CC2)nc1 | System = UniProtKB P35462 | Ki = ____
Reply: 0.501 to 5 µM

Task item: Write down the reported Ki of COc1cscc1C(=O)N1CCC(F)(CNCc2ccc(C)cn2)CC1 , test system: UniProtKB P35462.
Reply: > 5 µM

Task item: Request body: readout Ki, system UniProtKB P35462, query Cc1ccc(CNCC2(F)CCN(C(=O)c3cc4ccccc4o3)CC2)nc1 . Return the value.
Reply: > 5 µM

Task item: Give recorded Ki with UniProtKB P35462 for the following molecule: Cc1ccc(CNCC2(F)CCN(C(=O)c3cc(Br)cs3)CC2)nc1
Reply: > 5 µM

Task item: Please state recorded Ki (tested on UniProtKB P35462) of Cc1ccc(CNCC2(F)CCN(C(=O)c3ccsc3Br)CC2)nc1
Reply: > 5 µM

Task item: Query the reported Ki for UniProtKB P35462; item: Cc1ccc(CNCC2(F)CCN(C(=O)c3ccsc3)CC2)nc1
Reply: > 5 µM

Task item: Report Ki for Cc1ccc(CNCC2(F)CCN(C(=O)c3sc(Br)c4c3OCCO4)CC2)nc1 tested on UniProtKB P35462.
Reply: 0.501 to 5 µM

Task item: API: value(readout= Ki, system= UniProtKB P35462, query= Cc1ccc(CNCC2(F)CCN(C(=O)c3cc4ccccc4s3)CC2)nc1 )
Reply: > 5 µM
